systemTested: Human recombinant MMP-13 (Homo sapiens, UniProt P45452)
Construct: made in house; host or cells: baculovirus / insect cells
protocolDescription: In vitro MMP inhibition, IC50 determination (fluorogenic substrate I)
Type: biochemical
settings: value outside parenthesis
Protocol: Several hydroxamates and salts thereof were analyzed in in vitro assays to determine their ability to inhibit the MMP cleavage of peptide substrates. Inhibition (Ki) and IC50 constants were calculated from the assayed hydroxamate-MMP interactions. […] The assays from which the IC50 determinations were made were performed as follows. […] The assayed hydroxamate samples were, incubated in Microfluorrm White Plates (Dynatech, Chantilly, VA) and analyzed on a Perkin Elmer L550 plate reader (Norwalk, Conn.). […]
measurementType: pIC50
Conceptually, pIC50 converts a concentration in mol/L into minus its log10.

Past entries and their recorded results:
In [3]: df
Out[3]:
                                   molecule                              systemtested  recordedresult
0  Cc1ccc(-c2nnc(CCCOc3ccc(S(=O)(=O)C4(C(=O)NO)CCOCC4)cc3)o2)cc1 [Example 259]  Human recombinant MMP-13 (Homo sapiens, UniProt P45452)            9.15
1  O=C1N(CCCOc2ccc(S(=O)(=O)C3(C(=O)NO)CCOCC3)cc2)CCN1c1ccccc1 [Example 196]  Human recombinant MMP-13 (Homo sapiens, UniProt P45452)            7.94

Memo: CN(C)Cc1ccc(C(=O)CCCCOc2ccc(S(=O)(=O)C3(C(=O)NO)CCN(C4CC4)CC3)cc2)cc1 [Example 187] , reported pIC50: 8.74

pIC50 measured on Cc1ccc(-c2cccc(CCCOc3ccc(S(=O)(=O)C4(C(=O)NO)CCOCC4)cc3)c2)cc1C [Example 165] = 6.83

The molecule listed as CCOc1ccccc1-c1noc(CCCOc2ccc(S(=O)(=O)C3(C(=O)NO)CCOCC3)cc2)n1 [Example 264] has a reported pIC50 of 8.28

---

systemTested: Human recombinant MMP-1 (Homo sapiens, UniProt P03956)
Construct: made in house; host or cells: MMP-1-transfected HT-1080 cells (spent media)
Sequence (P03956 100-469): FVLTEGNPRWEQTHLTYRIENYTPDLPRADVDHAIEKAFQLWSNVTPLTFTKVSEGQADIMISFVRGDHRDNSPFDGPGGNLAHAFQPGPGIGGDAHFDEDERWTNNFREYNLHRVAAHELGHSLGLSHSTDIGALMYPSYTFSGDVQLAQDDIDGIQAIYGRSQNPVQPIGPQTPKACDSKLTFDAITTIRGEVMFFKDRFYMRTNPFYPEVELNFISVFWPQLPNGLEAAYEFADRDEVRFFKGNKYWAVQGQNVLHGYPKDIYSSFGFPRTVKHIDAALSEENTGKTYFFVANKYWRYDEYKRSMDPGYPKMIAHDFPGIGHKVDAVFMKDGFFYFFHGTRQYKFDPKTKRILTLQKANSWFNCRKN
protocolDescription: In vitro MMP inhibition, IC50 determination (fluorogenic substrate I)
Assay type: biochemical
settings: value outside parentheses
pIC50: −log10 of the molar value.
Listing: pIC50 of selected compounds

Field: example entries. Status: answers known.
In [3]: df
Out[3]:
                                inputsmiles                              systemtested  measurementtype  recordedresult
0  O=C(NO)C1(S(=O)(=O)c2ccc(OCCOc3ccc4c(c3)OCO4)cc2)CCOCC1  Human recombinant MMP-1 (Homo sapiens, UniProt P03956)            pIC50          < 5.00
1  NCc1ccc(OCCOc2ccc(S(=O)(=O)C3(C(=O)NO)CCOCC3)cc2)cc1  Human recombinant MMP-1 (Homo sapiens, UniProt P03956)            pIC50            5.54
2  O=C(NO)C1(S(=O)(=O)c2ccc(OCCOc3ccccc3)cc2)CCOCC1  Human recombinant MMP-1 (Homo sapiens, UniProt P03956)            pIC50          < 5.00
3  O=C(NO)C1(S(=O)(=O)c2ccc(OCCCS(=O)(=O)NC34CC5CC(CC(C5)C3)C4)cc2)CCOCC1  Human recombinant MMP-1 (Homo sapiens, UniProt P03956)            pIC50            5.03
4  O=C(NO)C1(S(=O)(=O)c2ccc(OCCOCc3ccncc3)cc2)CCOCC1  Human recombinant MMP-1 (Homo sapiens, UniProt P03956)            pIC50          < 5.00

pIC50 measured on CN(C)C(=O)c1cccc(OCCOc2ccc(S(=O)(=O)C3(C(=O)NO)CCOCC3)cc2)c1 = < 5.00

---

Listing of entries alongside the reported pIC50.
systemTested: Human recombinant MMP-13 (Homo sapiens, UniProt P45452)
Construct: made in house; host or cells: baculovirus / insect cells
protocolDescription: In vitro MMP inhibition, IC50 determination (fluorogenic substrate I)
Assay type: biochemical
settings: value outside parenthesis
Reminder that pIC50 is minus the log10 of a molar concentration.

                                   molecule  recordedresult
0  COCCN1CCC(C(=O)NO)(S(=O)(=O)c2ccc(OCCCc3nc(-c4ccccc4OC(F)(F)F)no3)cc2)CC1 [Example 152]            7.93
1  O=C(NO)C1(S(=O)(=O)c2ccc(OCCc3cccc(-c4ccc(F)cc4)c3)cc2)CCOCC1 [Example 123]            8.85
2  COc1ccc2sc(SCCOc3ccc(S(=O)(=O)C4(C(=O)NO)CCOCC4)cc3)nc2c1 [Example 282]            8.59

Now look at this entry.
Value of pIC50 reported for the molecule CCCCc1ccc(N2CCN(CCCOc3ccc(S(=O)(=O)C4(C(=O)NO)CCOCC4)cc3)C2=O)cc1 [Example 192] is 7.81

---

systemTested: Human recombinant MMP-2 (Homo sapiens, UniProt P08253)
Construct: made in house; host or cells: MMP-2-transfected p2AHT2 cells
Sequence (P08253 110-660): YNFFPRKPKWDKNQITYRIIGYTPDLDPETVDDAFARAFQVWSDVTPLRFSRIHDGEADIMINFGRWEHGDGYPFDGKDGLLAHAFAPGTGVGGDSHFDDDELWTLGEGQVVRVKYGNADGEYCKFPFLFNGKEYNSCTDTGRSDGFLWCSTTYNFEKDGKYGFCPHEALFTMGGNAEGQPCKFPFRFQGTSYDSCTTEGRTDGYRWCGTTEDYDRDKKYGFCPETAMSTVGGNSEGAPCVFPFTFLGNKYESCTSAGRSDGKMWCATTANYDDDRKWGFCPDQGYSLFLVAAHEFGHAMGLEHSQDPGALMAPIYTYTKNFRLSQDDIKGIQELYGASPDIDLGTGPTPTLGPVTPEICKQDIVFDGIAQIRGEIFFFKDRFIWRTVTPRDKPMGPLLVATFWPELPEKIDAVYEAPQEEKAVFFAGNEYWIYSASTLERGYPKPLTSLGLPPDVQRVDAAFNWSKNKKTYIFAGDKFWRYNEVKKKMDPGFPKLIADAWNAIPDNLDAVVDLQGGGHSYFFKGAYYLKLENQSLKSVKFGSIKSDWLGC
protocolDescription: In vitro MMP inhibition, Ki determination (fluorogenic substrate II)
Format: biochemical
settings: value in parentheses
Procedure: Several hydroxamates and salts thereof were analyzed in in vitro assays to determine their ability to inhibit the MMP cleavage of peptide substrates. Inhibition (Ki) and IC50 constants were calculated from the assayed hydroxamate-MMP interactions. […] The assays from which the Ki determinations were made were performed as follows. […] In the absence of MMP inhibitory activity, substrate II was cleaved at the Gly-Leu bond resulting in an increase of relative fluorescence. […]
measurementType: pKi
pKi field: float, defined as -log10 of concentration (mol/L).

Study these solved cases before continuing.
>>> df
                                inputsmiles  recordedresult
0  CCc1ccc(CCCOc2ccc(S(=O)(=O)C3(C(=O)NO)CCOCC3)cc2)cn1            7.63
1  O=C(NO)C1(S(=O)(=O)c2ccc(OCCCOc3cncnc3)cc2)CCOCC1            7.93
2  COCCN1CCC(C(=O)NO)(S(=O)(=O)c2ccc(OCCc3cccc(-c4cccc(F)c4)c3)cc2)CC1            6.51

Value of pKi reported for the compound O=C(NO)C1(S(=O)(=O)c2ccc(OCCCc3ccc(F)c(-c4ccccc4)c3)cc2)CCOCC1 is 6.36

---

systemTested: Human recombinant MMP-13 (Homo sapiens, UniProt P45452)
Construct: made in house; host or cells: baculovirus / insect cells
protocolDescription: In vitro MMP inhibition, IC50 determination (fluorogenic substrate I)
Type: biochemical
settings: value outside parentheses (Ki in parenthesis)
pIC50: −log10 of the molar value.
Lab note: anything with pIC50 at or over 8 counts as Yes; the rest go in No.

The examples below pair each entry with its known result.
In [3]: df
Out[3]:
                                   molecule  assignedclass
0  O=C(NCCCOc1ccc(S(=O)(=O)C2(C(=O)NO)CCOCC2)cc1)c1ccccn1            Yes
1  Cc1cc(C(=O)NCCCOc2ccc(S(=O)(=O)C3(C(=O)NO)CCOCC3)cc2)no1            Yes
2  CC(CCc1ccccc1)Oc1ccc(S(=O)(=O)C2(C(=O)NO)CCOCC2)cc1 (stereo not drawn)             No

Check the entry O=C(NCCCOc1ccc(S(=O)(=O)C2(C(=O)NO)CCOCC2)cc1)c1cnc2ccccc2c1 : does pIC50 equal or exceed 8? Yes

Please indicate if the recorded pIC50 for C[C@H](COc1ccc(S(=O)(=O)C2(C(=O)NO)CCOCC2)cc1)NC(=O)c1ccc(N(C)C)cc1 meets or exceeds 8. No

Hi team, for O=C(NCCCOc1ccc(S(=O)(=O)C2(C(=O)NO)CCOCC2)cc1)c1ccc2ccccc2n1 , is the recorded pIC50 at or above 8? Yes

Tell me whether pIC50 is at least 8 here: O=C(NO)C1(S(=O)(=O)c2ccc(OCCCNc3nc4ccccc4o3)cc2)CCOCC1 Yes

Would you say CCCC(CCOc1ccc(S(=O)(=O)C2(C(=O)NO)CCOCC2)cc1)SC (stereo not drawn) shows pIC50 at minimum 8? Yes

// inclusive: pIC50 at least 8? input: COc1ccc(C(O)CCCCOc2ccc(S(=O)(=O)C3(C(=O)NO)CCOCC3)cc2)cc1 (stereo not drawn) Yes

Hi team, for O=C(NO)C1(S(=O)(=O)c2ccc(OCCCSCc3ccccc3)cc2)CCOCC1 , is the recorded pIC50 at or above 8? No

Is it the case that COc1ccc(S(=O)(=O)CCCCOc2ccc(S(=O)(=O)C3(C(=O)NO)CCOCC3)cc2)cc1 has pIC50 reaching or exceeding 8? Yes

Please tell me: is the molecule CC(C)(C)C1CCN(S(=O)(=O)CCCOc2ccc(S(=O)(=O)C3(C(=O)NO)CCOCC3)cc2)CC1 at or over 8 in terms of pIC50? Yes

Please indicate if the recorded pIC50 for CCCC(CCOc1ccc(S(=O)(=O)C2(C(=O)NO)CCOCC2)cc1)S(C)(=O)=O (stereo not drawn) meets or exceeds 8. No

Hi team, for O=C(NCCCOc1ccc(S(=O)(=O)C2(C(=O)NO)CCOCC2)cc1)c1ccccc1 , is the recorded pIC50 at or above 8? Yes
